Recorded values, source paper PMC5439695.

Test system: HepG2 cells
Test: CellTox Green Cytotoxicity Assay (flor) in HepG2, HepG2[flor]
Type: cell-based, human
Conditions: HepG2, flor, 16 hrs, n=136; read-out: EC50
experimentalReadout: pEC50
Remember the convention: pEC50 equals -log10 of concentration in molar.

Prompt line: Dear colleague, please send me the reported pEC50 for CCCCCCCC[N+](CCCCCCCC)(CCCCCCCC)CCCCCCCC [tetra-N-octylammonium bromide, reference compound] when you can.
Response line: 5.21

###

Test system: HepG2 cells
Conditions: HepG2 glo, time point 32
Exercise: for every item that follows, state its recorded hepg2_glo_emax_32.
Could you keep your reply to the number by itself?

Prompt line: Provide only the value of recorded hepg2_glo_emax_32 for Cc1cc(N)c2cc(NC(=O)Nc3ccc4nc(C)cc(N)c4c3)ccc2n1.Cl.Cl [Aminoquinuride dihydrochloride]
Response line: 0

Prompt line: Identify measured hepg2_glo_emax_32 associated with O=C(O)c1ccccc1O.Oc1cccc2cccnc12 [8-Quinolinol Salicylic acid (1:1)]
Response line: 0

Prompt line: Report hepg2_glo_emax_32, nothing else, for this compound: CN(C)c1ccc(C(=C2C=CC(=[N+](C)C)C=C2)c2ccccc2)cc1.CN(C)c1ccc(C(=C2C=CC(=[N+](C)C)C=C2)c2ccccc2)cc1.O=C(O)C(=O)O.O=C([O-])C(=O)O.O=C([O-])C(=O)O [Malachite green oxalate]
Response line: -92.3669

Prompt line: Answer with reported hepg2_glo_emax_32 of O=S1(=O)OC(c2ccc(O)cc2)(c2ccc(O)cc2)c2ccccc21 [Phenol red]
Response line: 0

Prompt line: Specify measured hepg2_glo_emax_32 for CC(C)=CCC/C(C)=C/CO [Geraniol] .
Response line: 0

###

System: HepG2 cells
Conditions: HepG2 glo, kinetics bin
experimentalReadout: hepg2_glo_bin

compound	experimentalReadout	endpointResult
Cc1cc(N)c2cc(NC(=O)Nc3ccc4nc(C)cc(N)c4c3)ccc2n1.Cl.Cl [Aminoquinuride dihydrochloride]	hepg2_glo_bin	inactive
CC(C)=CCC/C(C)=C/CO	hepg2_glo_bin	inactive
O=C(O)c1ccccc1O.Oc1cccc2cccnc12	hepg2_glo_bin	inactive

###

Tested on: HepG2 cells
Details: HepG2 glo, time point 8
What hepg2_glo_emax_8 was measured for each of the following?
API doc: respond with a numeric literal and nothing else, no unit.

Prompt line: Quick one: give measured hepg2_glo_emax_8 for Cc1cc(N)c2cc(NC(=O)Nc3ccc4nc(C)cc(N)c4c3)ccc2n1.Cl.Cl [Aminoquinuride dihydrochloride]
Response line: 0

Prompt line: Supply reported hepg2_glo_emax_8 belonging to this compound: CC(C)=CCC/C(C)=C/CO [Geraniol]
Response line: 0

Prompt line: For the compound O=S1(=O)OC(c2ccc(O)cc2)(c2ccc(O)cc2)c2ccccc21 [Phenol red] , report hepg2_glo_emax_8.
Response line: 0

Prompt line: For the compound O=C(O)c1ccccc1O.Oc1cccc2cccnc12 [8-Quinolinol Salicylic acid (1:1)] , give its reported hepg2_glo_emax_8.
Response line: 0

Prompt line: Determine from records and report hepg2_glo_emax_8 for CN(C)c1ccc(C(=C2C=CC(=[N+](C)C)C=C2)c2ccccc2)cc1.CN(C)c1ccc(C(=C2C=CC(=[N+](C)C)C=C2)c2ccccc2)cc1.O=C(O)C(=O)O.O=C([O-])C(=O)O.O=C([O-])C(=O)O [Malachite green oxalate]
Response line: -63.2822

###

System: HepG2 cells
Assay: CellTox Green Cytotoxicity Assay (flor) in HepG2, HepG2[flor]
Assay type: cell-based, human
Conditions: HepG2 flor, time point 32
experimentalReadout: hepg2_flor_wauc_32
Could you respond with only the numeric value?

Prompt line: Answer with the recorded hepg2_flor_wauc_32 for the molecule listed here: Cc1cc(N)c2cc(NC(=O)Nc3ccc4nc(C)cc(N)c4c3)ccc2n1.Cl.Cl [Aminoquinuride dihydrochloride]
Response line: 0

Prompt line: Please indicate hepg2_flor_wauc_32 recorded for O=S1(=O)OC(c2ccc(O)cc2)(c2ccc(O)cc2)c2ccccc21 [Phenol red]
Response line: 0

Prompt line: Output hepg2_flor_wauc_32 of O=C(O)c1ccccc1O.Oc1cccc2cccnc12 [8-Quinolinol Salicylic acid (1:1)]
Response line: 0

Prompt line: State its hepg2_flor_wauc_32: CC(C)=CCC/C(C)=C/CO [Geraniol]
Response line: 0

Prompt line: Kindly indicate its recorded hepg2_flor_wauc_32. Item: CN(C)c1ccc(C(=C2C=CC(=[N+](C)C)C=C2)c2ccccc2)cc1.CN(C)c1ccc(C(=C2C=CC(=[N+](C)C)C=C2)c2ccccc2)cc1.O=C(O)C(=O)O.O=C([O-])C(=O)O.O=C([O-])C(=O)O [Malachite green oxalate]
Response line: 2.119

###

Tested on: HepG2 cells
Assay: cells
Conditions: Homo sapiens, HepG2, read-out: hepg2_glo_ec50_32
experimentalReadout: EC50

Prompt line: Identify measured EC50 corresponding to `O=S1(=O)OC(c2ccc(O)cc2)(c2ccc(O)cc2)c2ccccc21`
Response line: > 38.3 µM

Prompt line: Provide EC50 value for the following molecule: `CC(C)=CCC/C(C)=C/CO`
Response line: > 38.3 µM

###

Tested on: HEK293 cells
Details: HEK293 flor, time point 32
experimentalReadout: hek293_flor_wauc_32
Give the value as a plain number.

Prompt line: Provide one value: measured hek293_flor_wauc_32 of O=C(O)c1ccccc1O.Oc1cccc2cccnc12 [8-Quinolinol Salicylic acid (1:1)]
Response line: 0

Prompt line: Please indicate hek293_flor_wauc_32 recorded for CC(C)=CCC/C(C)=C/CO [Geraniol]
Response line: 0

Prompt line: Identify measured hek293_flor_wauc_32 associated with CN(C)c1ccc(C(=C2C=CC(=[N+](C)C)C=C2)c2ccccc2)cc1.CN(C)c1ccc(C(=C2C=CC(=[N+](C)C)C=C2)c2ccccc2)cc1.O=C(O)C(=O)O.O=C([O-])C(=O)O.O=C([O-])C(=O)O [Malachite green oxalate]
Response line: 1.407

Prompt line: Answer with the recorded hek293_flor_wauc_32 for the compound listed here: O=S1(=O)OC(c2ccc(O)cc2)(c2ccc(O)cc2)c2ccccc21 [Phenol red]
Response line: 0

Prompt line: Return hek293_flor_wauc_32 for the following compound: Cc1cc(N)c2cc(NC(=O)Nc3ccc4nc(C)cc(N)c4c3)ccc2n1.Cl.Cl [Aminoquinuride dihydrochloride]
Response line: 0

###

Tested on: HEK293 cells
Assay: cells
Conditions: Homo sapiens, HEK293, read-out: hek293_glo_ec50_24
experimentalReadout: EC50

Prompt line: Quote EC50 reported for O=S1(=O)OC(c2ccc(O)cc2)(c2ccc(O)cc2)c2ccccc21 [Phenol red] please.
Response line: > 38.3 µM

Prompt line: Consider the compound CC(C)=CCC/C(C)=C/CO [Geraniol] and give its recorded EC50.
Response line: > 38.3 µM

###

Tested on: HEK293 cells
Settings: HEK293 flor
I'd be grateful if you could share measured hek293_flor_auc for these entries.
Just the number, please.

Prompt line: Look up and report measured hek293_flor_auc for this entry: CN(C)c1ccc(C(=C2C=CC(=[N+](C)C)C=C2)c2ccccc2)cc1.CN(C)c1ccc(C(=C2C=CC(=[N+](C)C)C=C2)c2ccccc2)cc1.O=C(O)C(=O)O.O=C([O-])C(=O)O.O=C([O-])C(=O)O [Malachite green oxalate]
Response line: 1.491

Prompt line: Return hek293_flor_auc (reported value) for this molecule: O=S1(=O)OC(c2ccc(O)cc2)(c2ccc(O)cc2)c2ccccc21 [Phenol red]
Response line: 0

Prompt line: Complete the entry with hek293_flor_auc for O=C(O)c1ccccc1O.Oc1cccc2cccnc12 [8-Quinolinol Salicylic acid (1:1)]
Response line: 0

Prompt line: Identify measured hek293_flor_auc corresponding to CC(C)=CCC/C(C)=C/CO [Geraniol]
Response line: 0

Prompt line: Give the reported value of hek293_flor_auc for this record: Cc1cc(N)c2cc(NC(=O)Nc3ccc4nc(C)cc(N)c4c3)ccc2n1.Cl.Cl [Aminoquinuride dihydrochloride]
Response line: 0

###

Tested on: HepG2 cells
Test: CellTox Green Cytotoxicity Assay (flor) in HepG2, HepG2[flor]
Assay type: cell-based, human
Settings: HepG2 flor, time point 16
experimentalReadout: hepg2_flor_pod_16
Just the number, please.

Prompt line: Specify reported hepg2_flor_pod_16 for the molecule shown: O=S1(=O)OC(c2ccc(O)cc2)(c2ccc(O)cc2)c2ccccc21 [Phenol red]
Response line: -4.417

Prompt line: Item Cc1cc(N)c2cc(NC(=O)Nc3ccc4nc(C)cc(N)c4c3)ccc2n1.Cl.Cl [Aminoquinuride dihydrochloride] : provide hepg2_flor_pod_16
Response line: -4.417

Prompt line: Respond only with hepg2_flor_pod_16 recorded for O=C(O)c1ccccc1O.Oc1cccc2cccnc12 [8-Quinolinol Salicylic acid (1:1)]
Response line: -4.417

Prompt line: Please report the measured hepg2_flor_pod_16 for CC(C)=CCC/C(C)=C/CO [Geraniol]
Response line: -4.417

Prompt line: State its hepg2_flor_pod_16 for this molecule: CN(C)c1ccc(C(=C2C=CC(=[N+](C)C)C=C2)c2ccccc2)cc1.CN(C)c1ccc(C(=C2C=CC(=[N+](C)C)C=C2)c2ccccc2)cc1.O=C(O)C(=O)O.O=C([O-])C(=O)O.O=C([O-])C(=O)O [Malachite green oxalate]
Response line: -5.554
